System name: aromatase (Homo sapiens)
Sequence (P11511 whole entry): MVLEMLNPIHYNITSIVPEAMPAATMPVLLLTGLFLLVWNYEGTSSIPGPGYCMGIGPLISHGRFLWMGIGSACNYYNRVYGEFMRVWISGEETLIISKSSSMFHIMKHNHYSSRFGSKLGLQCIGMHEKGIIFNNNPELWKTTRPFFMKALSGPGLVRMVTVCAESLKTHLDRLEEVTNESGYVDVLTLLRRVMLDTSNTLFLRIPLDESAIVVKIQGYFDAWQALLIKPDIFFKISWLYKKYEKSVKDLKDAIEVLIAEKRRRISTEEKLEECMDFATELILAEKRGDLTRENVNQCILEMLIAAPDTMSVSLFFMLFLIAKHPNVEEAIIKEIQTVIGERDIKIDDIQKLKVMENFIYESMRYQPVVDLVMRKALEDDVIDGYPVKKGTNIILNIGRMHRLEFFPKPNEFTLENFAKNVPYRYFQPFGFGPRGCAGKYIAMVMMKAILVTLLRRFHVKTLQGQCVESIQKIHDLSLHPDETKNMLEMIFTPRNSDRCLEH
Property measured: pIC50
Numbers only, as −log10 of the molar value.

# returns recorded pIC50 (system: aromatase (Homo sapiens)) for CC12CC=C3C(CCC4=CC(=O)CCC43CC=O)C1CCC2=O (stereo not shown) [Example 3] 7.07
